Experiment: Pharmacokinetic test of Compound 10 in mice (intravenous and intragastric)
Type: in vivo
Settings: mouse, plasma, po; intragastric administration, 2 mg/kg, male CD-1 mice; read-out: Plasma Concentration Cmax
MEASUREMENT NAME: Cmax (nM)
Report only the number, with the unit nM understood.

Report Cmax, nothing else, for this molecule: CCc1nc(OCCO)c2cc(N3C(=S)N(c4ccc(C#N)c(C(F)(F)F)c4)C(=O)C3(C)C)cc(F)c2n1 [Compound 10]
2760

* * *

# reported AUC(0-t); entries follow
Assay: Pharmacokinetic test of Compound 35 and Compound 58 in mice (intravenous and intragastric)
Format: in vivo
Details: mouse, plasma, po; intragastric administration, 2 mg/kg, male CD-1 mice; read-out: Curve Area (0-t) AUC0-last
Answer with a number only, understood to be in µM·h.

INSERT INTO assay_data (smiles_input, measurement_name, scale_unit, test_result) VALUES
  ('CCc1cc(=O)n2cc(N3C(=S)N(c4ccc(C#N)c(C(F)(F)F)c4)C(=O)C3(C)C)cc(F)c2n1', 'AUC(0-t)', 'µM·h', 110);

Provide one value: measured AUC(0-t) of CCc1cc(=O)n2cc(N3C(=S)N(c4ccc(C#N)c(Cl)c4)C(=O)C3(C)C)cc(F)c2n1
370
